target: Beta-lactamase (Staphylococcus aureus, UniProt P00807); assay: Inhibitory activity against serine beta-lactamase, PC1 (class A) derived from Staphylococcus aureus
Sequence (P00807 whole entry): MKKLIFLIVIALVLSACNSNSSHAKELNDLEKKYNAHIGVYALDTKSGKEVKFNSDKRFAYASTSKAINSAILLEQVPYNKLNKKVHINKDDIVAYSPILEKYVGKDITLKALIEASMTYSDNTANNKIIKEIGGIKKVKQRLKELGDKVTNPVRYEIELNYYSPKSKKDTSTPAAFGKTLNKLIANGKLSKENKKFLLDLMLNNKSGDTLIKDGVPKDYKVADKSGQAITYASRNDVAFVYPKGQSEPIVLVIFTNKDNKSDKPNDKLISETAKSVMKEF
pIC50: −log10 of the molar value.
Binary call on pIC50: yes from 4 upward, no beneath that.

Q: Does the compound C[C@]1(/C=C/C#N)[C@H](C(=O)O)N2C(=O)/C(=C/C(=O)O)C2S1(=O)=O (stereo partly specified) have recorded pIC50 that is 4 or more?
Result: no

Q: Does the compound C[C@]1(CCl)[C@H](C(=O)O)N2C(=O)/C(=C/C(=O)O)C2S1(=O)=O (stereo partly specified) have recorded pIC50 that is 4 or more?
Result: no

Q: Does the compound CC(=O)OC[C@@]1(C)[C@H](C(=O)O)N2C(=O)/C(=C/C(=O)O)C2S1(=O)=O (stereo partly specified) have recorded pIC50 that is 4 or more?
Result: yes

Q: Does the compound C[C@]1(COC(=O)Cc2ccccc2)[C@H](C(=O)O)N2C(=O)/C(=C/C(=O)O)C2S1(=O)=O (stereo partly specified) have recorded pIC50 that is 4 or more?
Result: no

Q: Does the compound CC(=O)OC[C@@]1(C)[C@H](C(=O)O)N2C(=O)/C(=C/c3ccccn3)C2S1(=O)=O (stereo partly specified) have recorded pIC50 that is 4 or more?
Result: yes

Provenance of the data: ChEMBL document CHEMBL1131794
